Every entry's value here was drawn from patent US8614240B2.

Tested on: IL-6 reactive STAT3 reporter gene
EXPERIMENTAL PROTOCOL: IL-6 reactive STAT3 reporter gene test (pSTAT3-TA-Luc6 luciferase) in HepG2 cells
Type: cell-based
CONDITION LABEL: Homo sapiens, HepG2, 20 ug/ml of sample, HepG2 cells; read-out: Inhibition % of IL-6 reactive STAT3 reporter gene activity
Examples of compounds with documented inhibition at 20 µg/mL follow.
QUANTITY: inhibition at 20 µg/mL

COMPOUND: CCc1ccc(Nc2nc3cc(NC(=O)c4cccc(CCl)c4)ccc3o2)cc1 [Compound 8]
RESULT: > 80%
--
COMPOUND: CCc1ccc(Nc2nc3cc(NC(=O)c4cc([N+](=O)[O-])ccc4Cl)ccc3o2)cc1 [Compound 6]
RESULT: 65.6%
--
COMPOUND: CCc1ccc(Nc2nc3cc(NC(=O)c4ccc([N+](=O)[O-])cc4Cl)ccc3o2)cc1 [Compound 5]
RESULT: 20%
--
COMPOUND: CCc1ccc(Nc2nc3cc(N)ccc3o2)cc1 [Compound 1]
RESULT: 97%
--
COMPOUND: CCc1ccc(Nc2nc3cc(NC(=O)c4ccccc4Nc4cccc(C(F)(F)F)c4)ccc3o2)cc1 [Compound 16]
RESULT: > 80%
--
COMPOUND: CCc1ccc(Nc2nc3cc(NC(=O)c4ccc(CC)cc4)ccc3o2)cc1 [Compound 9]
RESULT: 63.3%
